- target_or_test_system: T1, human CD71 extracellular domain (human, UniProt P02786 89-760)
- T1 construct: also called hCD71; human CD71-ECD
- T1 sequence (P02786 89-760): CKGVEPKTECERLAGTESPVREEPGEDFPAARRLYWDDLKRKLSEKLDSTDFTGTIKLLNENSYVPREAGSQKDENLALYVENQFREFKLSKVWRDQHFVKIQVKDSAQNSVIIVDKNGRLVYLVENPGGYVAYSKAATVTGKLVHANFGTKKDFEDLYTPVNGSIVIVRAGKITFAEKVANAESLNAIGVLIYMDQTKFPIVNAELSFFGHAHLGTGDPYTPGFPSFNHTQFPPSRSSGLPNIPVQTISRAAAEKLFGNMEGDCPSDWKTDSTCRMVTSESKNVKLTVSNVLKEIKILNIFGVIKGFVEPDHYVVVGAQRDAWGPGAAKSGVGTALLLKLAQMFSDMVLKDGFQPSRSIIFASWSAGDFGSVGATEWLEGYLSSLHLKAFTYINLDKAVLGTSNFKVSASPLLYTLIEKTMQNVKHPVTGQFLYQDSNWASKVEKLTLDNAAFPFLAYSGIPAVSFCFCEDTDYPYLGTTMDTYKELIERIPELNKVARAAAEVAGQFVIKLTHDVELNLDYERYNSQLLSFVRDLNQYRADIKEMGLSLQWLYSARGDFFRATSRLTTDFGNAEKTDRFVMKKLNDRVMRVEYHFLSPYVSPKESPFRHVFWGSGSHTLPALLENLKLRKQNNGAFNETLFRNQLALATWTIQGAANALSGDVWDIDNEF
- method_summary: primary ELISA, signal ratio to HSA
assay_readout: hCD71:HSA
Please reply with the value in numeric form only.

Reference set, count: 6
| binder | assay_readout | result_value |
| --- | --- | --- |
| CD71-binding FN3 domain of SEQ ID NO: 134 (designed binder) MSLPAPKNLVVSRVTEDSARLSWTAPDAAFDSFDINYWENESGGEAIALFVPGSERSYDLTGLKPGTEYLVTIAGVKGGWWSKPLYATFTT | hCD71:HSA | 192 |
| CD71-binding FN3 domain of SEQ ID NO: 189 (designed binder) MSLPAPKNLVVSRVTEDSARLSWTAPDAAFDSFEIGYFEHTYYGEAIVLTVPGSERSYDLTGLKPGTEYWVQIGGVKGGNWSAPLSAIFTT | hCD71:HSA | 1380 |
| CD71-binding FN3 domain of SEQ ID NO: 128 (designed binder) MSSLPAPKNLVVSRVTEDSARLSWTAPDAAFDSFEIGYFENLYLGEAIVLTVPGSERSYDLTGLKPGTEYWVQIGGVKGGNWSAPLSAIFTT | hCD71:HSA | 215 |
| CD71-binding FN3 domain of SEQ ID NO: 138 (designed binder) MSLPAPKNLVVSRVTEDSARLSWTAPDAAFDSFFIGYLEPQPPGEVIHLFVPGSERSYDLTGLKPGTEYNVTIQGVKGGFPSMPLSAIFTT | hCD71:HSA | 246 |
| CD71-binding FN3 domain of SEQ ID NO: 169 (designed binder) MSLPAPKNLVVSRVTEDSARLSWTAPDAAFDSFEIGYFENLYLGEAIVLTVPGSERSYDLTGLKPGTEYWVQIGGVKGGNWSAPLSATFTT | hCD71:HSA | 289 |
| CD71-binding FN3 domain of SEQ ID NO: 164 (designed binder) MSLPAPKNLVVSRVTEDSARLSWTAPDAAFDSFFIGYLEPQPPGEAIHLYVPGSERSYDLTGLKPGTEYWVQIGGVKGGNWSAPLSAIFTT | hCD71:HSA | 286 |

Challenge: hCD71:HSA lookup needed for CD71-binding FN3 domain of SEQ ID NO: 135 (designed binder) MSLPAPKNLVVSRVTEDSARLSWTAPDAAFDSFFIGYLEPQSPGEAIALYVPGSERSYDLTGLKPGTEYNVTIQGVKGGFPSEPLIANFTT , thanks.
Response given: 224

Challenge: hCD71:HSA lookup needed for CD71-binding FN3 domain of SEQ ID NO: 121 (designed binder) MSLPAPKNLVVSRVTEDSARLSWTAPDAAFDSFFIGYLEPQPPGEAITLYVPGSERSYDLTGLKPGTEYNVTIQGVKGGFPSAPLSAIFTT , thanks.
Response given: 109

Challenge: hCD71:HSA lookup needed for CD71-binding FN3 domain of SEQ ID NO: 166 (designed binder) MSLPAPKNLVVSRVTEDSARLSWTAPDAAFDSFEIGYFENLYLGEAIVLTVPGSERSYDLTGLKPGTEYWVQIGGIKGGNWSAPLSAIFTT , thanks.
Response given: 153

Sourced from patent US20260151494A1
